Test system: HEK-293T
test: Multiplex assay against HEK293T
Type: toxicity, cell-based
testConditions: human, 48 h, 1 µM, compound concentration 1 uM, replicate 2
measuredProperty: Population Membrane Permeable-Phenotype (%)

- molecule: "CCCn1c(=O)c2[nH]c(C34CC5CC(CC3C5)C4)nc2n(CCC)c1=O [ROLOFYLLINE]"
  measuredResult: 14
- molecule: "COc1cc2c(NC3CCN(C(C)C)CC3)nc(N3CCC(F)(F)CC3)nc2cc1OCCCN1CCCC1"
  measuredResult: 7
- molecule: "CC(=O)c1cc(-c2cc(C(=O)NC3CC3)ccc2C)c2ncccn12"
  measuredResult: 4
- molecule: "CCc1cc2c(cc1CC)CC(NC[C@H](O)c1ccc(O)c3[nH]c(=O)ccc13)C2 [INDACATEROL]"
  measuredResult: 5
- molecule: "CNc1oc(-c2cccc3ccccc23)nc1C#N"
  measuredResult: 7
- molecule: "COc1ccc(NS(=O)(=O)c2sc3ccc(Cl)cc3c2C)cc1N1CCNCC1.Cl"
  measuredResult: 3

###

System: HEK-293T
test: Multiplex assay against HEK293T
Assay type: toxicity, cell-based
testConditions: human, 24 h, 10 µM, compound concentration 10 uM, replicate 1
Response field label takes condition met when Population Hoechst High Intensity Objects (%) is strictly below 20% and condition not met in all other cases.

- molecule: "Cl.Cl.Nc1ncnc2c1c(-c1cccc(OCc3ccccc3)c1)cn2[C@H]1C[C@@H](CN2CCC2)C1"
  className: "condition not met"
- molecule: "Cc1cc2c(cc1N1C(=O)c3cccc4c(CCCO)ccc(c34)C1=O)n(C)c(=O)n2C"
  className: "condition met"
- molecule: "Cc1nc(Cc2cccc(C(F)(F)F)c2)sc1-c1ccc(C(N)=O)nc1 [TP-024n]"
  className: "condition met"
- molecule: "CC(=O)c1cc(-c2cc(C(=O)NC3CC3)ccc2C)c2ncccn12"
  className: "condition met"
- molecule: "CC(C)(C)c1cnc(CSc2cnc(NC(=O)C3CCNCC3)s2)o1 [BMS-387032]"
  className: "condition not met"
- molecule: "CC(C)N1CCC(C)(C)c2cc(C#Cc3ccc(C(=O)O)cc3)ccc21"
  className: "condition not met"
- molecule: "CCc1cc2c(cc1CC)CC(NC[C@H](O)c1ccc(O)c3[nH]c(=O)ccc13)C2 [INDACATEROL]"
  className: "condition not met"
- molecule: "CCC(=O)O[C@]1(C(=O)SCF)[C@H](C)C[C@H]2[C@@H]3C[C@H](F)C4=CC(=O)C=C[C@]4(C)[C@@]3(F)[C@@H](O)C[C@@]21C [FLUTICASONE PROPIONATE]"
  className: "condition met"
- molecule: "c1ccc2oc(-c3csc(C4CCN(Cc5nc6ncccc6[nH]5)CC4)n3)cc2c1"
  className: "condition met"
- molecule: "Nc1ccc(C(=O)Nc2cccc(-c3nc(N4CCOCC4)c4oc5ncccc5c4n3)c2)cn1"
  className: "condition not met"
- molecule: "CN(C)CCOc1ccc(-c2nc(-c3ccncc3)c(-c3ccc4c(c3)CC/C4=N\\O)[nH]2)cc1 [SB590885]"
  className: "condition met"
- molecule: "CCOc1cc2ncc(C#N)c(Nc3ccc(OCc4cccc(F)c4)c(Cl)c3)c2cc1NC(=O)/C=C/CN(C)C [HKI-357]"
  className: "condition met"
- molecule: "Nc1nc2c(c(N3CCNCC3)n1)CCC1=C2[C@@H]2CCCC[C@@H]2O1"
  className: "condition not met"
- molecule: "Cl.Cl.NC1(c2ccc(-c3nc4ccn5c(=O)[nH]nc5c4cc3-c3ccccc3)cc2)CCC1"
  className: "condition not met"
- molecule: "COc1cc2c(NC3CCN(C(C)C)CC3)nc(N3CCC(F)(F)CC3)nc2cc1OCCCN1CCCC1"
  className: "condition not met"
- molecule: "COc1cc2c(Nc3ccc(NC(=O)c4ccccc4)cc3)ncnc2cc1OCCCN1CCOCC1"
  className: "condition met"

###

System: Fibroblast
test: Multiplex assay against human fibroblast
Type: toxicity, cell-based
testConditions: 12 h, 1 µM, compound concentration 1 uM, replicate 2
Each entry gets f if its Total Cell Count stays under 80, and t if its Total Cell Count is 80 or above.

- compound: "Cc1cn(-c2cc(NC(=O)c3ccc4c(c3)CN(c3cncnc3)C[C@@H]4C)cc(C(F)(F)F)c2)cn1"
  className: "t"
- compound: "COc1cc2c(Nc3ccc(NC(=O)c4ccccc4)cc3)ncnc2cc1OCCCN1CCOCC1"
  className: "t"
- compound: "CCOc1cc(N2CCC(O)CC2)ccc1Nc1ncc2c(n1)N(C1CCCC1)CCC(=O)N2C"
  className: "f"
- compound: "N#Cc1cnc(Nc2cc(NC[C@H]3CNCCO3)c(C(F)(F)F)cn2)cn1 [SRA-737]"
  className: "f"
- compound: "CCc1cc2c(cc1CC)CC(NC[C@H](O)c1ccc(O)c3[nH]c(=O)ccc13)C2 [INDACATEROL]"
  className: "f"
- compound: "Cc1cc2c(cc1N1C(=O)c3cccc4c(CCCO)ccc(c34)C1=O)n(C)c(=O)n2C"
  className: "t"
- compound: "CCOc1cc2ncc(C#N)c(Nc3ccc(OCc4cccc(F)c4)c(Cl)c3)c2cc1NC(=O)/C=C/CN(C)C [HKI-357]"
  className: "t"

###

Test system: Fibroblast
test: Multiplex assay against human fibroblast
Assay type: toxicity, cell-based
testConditions: 24 h, 10 µM, compound concentration 10 uM, replicate 1
measuredProperty: Total Cell Count

- compound: "N#Cc1cnc(Nc2cc(NC[C@H]3CNCCO3)c(C(F)(F)F)cn2)cn1"
  studySystem: "Fibroblast"
  measuredResult: 342
- compound: "CCc1cc2c(cc1CC)CC(NC[C@H](O)c1ccc(O)c3[nH]c(=O)ccc13)C2"
  studySystem: "Fibroblast"
  measuredResult: 243
- compound: "CCOc1cc(N2CCC(O)CC2)ccc1Nc1ncc2c(n1)N(C1CCCC1)CCC(=O)N2C"
  studySystem: "Fibroblast"
  measuredResult: 308
- compound: "CC(C)(C)c1cnc(CSc2cnc(NC(=O)C3CCNCC3)s2)o1"
  studySystem: "Fibroblast"
  measuredResult: 196
- compound: "CN(C)CCOc1ccc(-c2nc(-c3ccncc3)c(-c3ccc4c(c3)CC/C4=N\\O)[nH]2)cc1"
  studySystem: "Fibroblast"
  measuredResult: 299
- compound: "CNc1oc(-c2cccc3ccccc23)nc1C#N"
  studySystem: "Fibroblast"
  measuredResult: 2998
- compound: "CNC(=O)c1cc(Oc2ccc(NC(=O)Nc3cc(C(C)(C)C)nn3-c3ccc4ncccc4c3)c(F)c2)ccn1"
  studySystem: "Fibroblast"
  measuredResult: 229
- compound: "COc1ccc(NS(=O)(=O)c2sc3ccc(Cl)cc3c2C)cc1N1CCNCC1.Cl"
  studySystem: "Fibroblast"
  measuredResult: 226
- compound: "CCCn1c(=O)c2[nH]c(C34CC5CC(CC3C5)C4)nc2n(CCC)c1=O"
  studySystem: "Fibroblast"
  measuredResult: 128
- compound: "CC(C)N1CCC(C)(C)c2cc(C#Cc3ccc(C(=O)O)cc3)ccc21"
  studySystem: "Fibroblast"
  measuredResult: 921
- compound: "O=C(O)c1ccc2cc(-c3ccc(O)c(C45CC6CC(CC(C6)C4)C5)c3)ccc2c1"
  studySystem: "Fibroblast"
  measuredResult: 113
- compound: "c1ccc2oc(-c3csc(C4CCN(Cc5nc6ncccc6[nH]5)CC4)n3)cc2c1"
  studySystem: "Fibroblast"
  measuredResult: 183
- compound: "Cc1nc(Cc2cccc(C(F)(F)F)c2)sc1-c1ccc(C(N)=O)nc1 [TP-024n]"
  studySystem: "Fibroblast"
  measuredResult: 152
- compound: "COc1cc2c(Nc3ccc(NC(=O)c4ccccc4)cc3)ncnc2cc1OCCCN1CCOCC1"
  studySystem: "Fibroblast"
  measuredResult: 248
- compound: "Nc1ccc(C(=O)Nc2cccc(-c3nc(N4CCOCC4)c4oc5ncccc5c4n3)c2)cn1"
  studySystem: "Fibroblast"
  measuredResult: 514
- compound: "Cc1cn(-c2cc(NC(=O)c3ccc4c(c3)CN(c3cncnc3)C[C@@H]4C)cc(C(F)(F)F)c2)cn1"
  studySystem: "Fibroblast"
  measuredResult: 161
- compound: "CC(=O)c1cc(-c2cc(C(=O)NC3CC3)ccc2C)c2ncccn12"
  studySystem: "Fibroblast"
  measuredResult: 151
- compound: "Cl.Cl.Nc1ncnc2c1c(-c1cccc(OCc3ccccc3)c1)cn2[C@H]1C[C@@H](CN2CCC2)C1"
  studySystem: "Fibroblast"
  measuredResult: 178

###

Test system: HEK-293T
test: Multiplex assay against HEK293T
Format: toxicity, cell-based
testConditions: human, 24 h, 10 µM, compound concentration 10 uM, replicate 2
measuredProperty: Population Membrane Permeable-Phenotype (%)

- compound: "Cc1cc2c(cc1N1C(=O)c3cccc4c(CCCO)ccc(c34)C1=O)n(C)c(=O)n2C"
  measuredResult: "3%"
- compound: "Cl.Cl.NC1(c2ccc(-c3nc4ccn5c(=O)[nH]nc5c4cc3-c3ccccc3)cc2)CCC1"
  measuredResult: "29%"
- compound: "COc1cc2c(Nc3ccc(NC(=O)c4ccccc4)cc3)ncnc2cc1OCCCN1CCOCC1"
  measuredResult: "5%"
- compound: "CN(C)CCOc1ccc(-c2nc(-c3ccncc3)c(-c3ccc4c(c3)CC/C4=N\\O)[nH]2)cc1"
  measuredResult: "7%"
- compound: "CCOc1cc2ncc(C#N)c(Nc3ccc(OCc4cccc(F)c4)c(Cl)c3)c2cc1NC(=O)/C=C/CN(C)C"
  measuredResult: "12%"
- compound: "COc1ccc(NS(=O)(=O)c2sc3ccc(Cl)cc3c2C)cc1N1CCNCC1.Cl"
  measuredResult: "2%"
- compound: "CC(C)(C)c1cnc(CSc2cnc(NC(=O)C3CCNCC3)s2)o1"
  measuredResult: "0%"
- compound: "CC(C)N1CCC(C)(C)c2cc(C#Cc3ccc(C(=O)O)cc3)ccc21"
  measuredResult: "3%"
- compound: "CCCn1c(=O)c2[nH]c(C34CC5CC(CC3C5)C4)nc2n(CCC)c1=O"
  measuredResult: "22%"
- compound: "O=C(O)c1ccc2cc(-c3ccc(O)c(C45CC6CC(CC(C6)C4)C5)c3)ccc2c1"
  measuredResult: "4%"
- compound: "CNC(=O)c1cc(Oc2ccc(NC(=O)Nc3cc(C(C)(C)C)nn3-c3ccc4ncccc4c3)c(F)c2)ccn1"
  measuredResult: "7%"
- compound: "CN(C)C/C=C/C(=O)Nc1cc2c(Nc3ccc(F)c(Cl)c3)ncnc2cc1O[C@H]1CCOC1.O=C(O)/C=C\\C(=O)O.O=C(O)/C=C\\C(=O)O [AFATINIB DIMALEATE]"
  measuredResult: "6%"
- compound: "CCC(=O)O[C@]1(C(=O)SCF)[C@H](C)C[C@H]2[C@@H]3C[C@H](F)C4=CC(=O)C=C[C@]4(C)[C@@]3(F)[C@@H](O)C[C@@]21C [FLUTICASONE PROPIONATE]"
  measuredResult: "8%"
- compound: "CCc1cc2c(cc1CC)CC(NC[C@H](O)c1ccc(O)c3[nH]c(=O)ccc13)C2"
  measuredResult: "2%"
- compound: "Cc1nc(Cc2cccc(C(F)(F)F)c2)sc1-c1ccc(C(N)=O)nc1 [TP-024n]"
  measuredResult: "2%"
- compound: "CC(=O)c1cc(-c2cc(C(=O)NC3CC3)ccc2C)c2ncccn12"
  measuredResult: "4%"
- compound: "CCOc1cc(N2CCC(O)CC2)ccc1Nc1ncc2c(n1)N(C1CCCC1)CCC(=O)N2C"
  measuredResult: "2%"
